Reported values of inhibition at 1 µM for individual entries
Biological target: AKT2 (PKB beta) (Homo sapiens)
Sequence (P31751 whole entry): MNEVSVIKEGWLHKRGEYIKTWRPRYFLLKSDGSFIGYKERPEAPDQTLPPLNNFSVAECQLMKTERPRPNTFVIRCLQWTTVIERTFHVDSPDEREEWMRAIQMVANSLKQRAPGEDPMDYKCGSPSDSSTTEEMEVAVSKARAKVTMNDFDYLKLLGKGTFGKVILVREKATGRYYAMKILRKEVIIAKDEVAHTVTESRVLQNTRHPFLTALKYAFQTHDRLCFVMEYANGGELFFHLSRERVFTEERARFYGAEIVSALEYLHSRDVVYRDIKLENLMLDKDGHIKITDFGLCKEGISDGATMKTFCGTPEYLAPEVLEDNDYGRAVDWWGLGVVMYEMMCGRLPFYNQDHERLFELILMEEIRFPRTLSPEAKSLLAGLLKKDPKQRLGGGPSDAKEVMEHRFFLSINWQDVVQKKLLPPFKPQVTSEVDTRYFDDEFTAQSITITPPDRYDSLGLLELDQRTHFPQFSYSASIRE
Assay: Tyrosine kinase inhibition assay
Format: biochemical
Settings: single concentration 1.0 μM, read-out: percent inhibition
Measured quantity: inhibition at 1 µM (%)

Compound: COc1cc2nccc(Oc3ccc(NC(=O)C4(C(=O)Nc5ccc(F)cc5)CC4)cc3)c2cc1OC [Cabozantinib, reference compound]
Measured quantity: inhibition at 1 µM
Obs value: 17
--
Compound: COc1cc2nccc(Oc3ccc(NC(=O)C4(NC(=O)c5ccc(F)cc5)CC4)cc3F)c2cc1OC
Measured quantity: inhibition at 1 µM
Obs value: 10
--
Compound: COc1cc2nccc(Oc3ccc(NC(=O)C4(C(=O)Nc5ccc(F)cc5)CC4)cc3F)c2cc1Oc1ccc(N)cc1F
Measured quantity: inhibition at 1 µM
Obs value: 0
--
Compound: COc1cc2nccc(Oc3ccc(NC(=O)C4(NC(=O)c5ccc(F)cc5)CC4)cc3F)c2cc1Oc1c(F)cc(N)cc1F
Measured quantity: inhibition at 1 µM
Obs value: 10
--
Compound: COc1cc2nccc(Oc3ccc(NC(=O)C4(NC(=O)c5ccc(F)cc5)CC4)cc3F)c2cc1Oc1ccc(N)cc1F
Measured quantity: inhibition at 1 µM
Obs value: 5
